target: Stimulator of interferon genes protein (Homo sapiens, UniProt Q86WV6); assay: Agonist activity against human STING Q variant expressed in HEK293T cells co-expressing ISRE.ISG54 incubated for 18 hrs by luciferase reporter gene assay; assay type: cell-based; conditions: hek-293t
Sequence (Q86WV6 whole entry, looked up, stated change not applied): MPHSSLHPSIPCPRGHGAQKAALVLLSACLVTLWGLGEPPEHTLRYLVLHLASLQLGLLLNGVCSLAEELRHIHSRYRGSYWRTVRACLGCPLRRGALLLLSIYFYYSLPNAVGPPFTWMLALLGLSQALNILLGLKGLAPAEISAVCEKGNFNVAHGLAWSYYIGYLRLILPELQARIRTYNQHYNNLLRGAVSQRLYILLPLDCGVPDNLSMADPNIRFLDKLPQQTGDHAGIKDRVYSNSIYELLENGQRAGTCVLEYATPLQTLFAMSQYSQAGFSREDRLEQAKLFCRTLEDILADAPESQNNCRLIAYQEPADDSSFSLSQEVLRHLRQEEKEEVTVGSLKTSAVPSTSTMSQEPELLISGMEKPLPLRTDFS
Reported Property: EC50

Quick note, EC50 for C[C@H]1c2ccc(C(=O)NCc3c(F)cc(F)cc3F)cc2N(Cc2c(F)cccc2Cl)C(=O)N1C landed at 90 nM

====

tested on: HEK-293T; assay: Agonist activity against human STING R232H variant transfected in HEK-293T cells co-expressing ISRE.ISG54 at 5 uM by luciferase reporter gene assay relative to control; type: cell-based
Active and inactive are the calls of the source. The calls are words filed in the database; no cut-off is given here.
Reported Property: Activity

CN1Cc2ccc(C(=O)NCc3cccc(-n4cncn4)c3)cc2N(Cc2c(F)cccc2Cl)C1=O | inactive
CN1Cc2ccc(C(=O)NCc3cccc(N4CCOCC4)c3)cc2N(Cc2c(F)cccc2Cl)C1=O | inactive
CN1Cc2ccc(C(=O)NCc3c(F)cc(F)cc3F)cc2N(Cc2cn3ccccc3n2)C1=O | 16%
CN1Cc2ccc(C(=O)NCc3ccc4cnn(C)c4c3)cc2N(Cc2c(F)cccc2Cl)C1=O | inactive

Quick note, Activity for O=C(NCc1c(F)cc(F)cc1F)c1ccc2c(c1)N(Cc1c(F)cccc1Cl)C(=O)N(O)C2 landed at 8%

Quick note, Activity for CN1Cc2ccc(C(=O)NCc3c(F)cc(F)cc3F)cc2N(Cc2cn(C)cn2)C1=O landed at 7%

Quick note, Activity for CN1Cc2ccc(C(=O)NCc3cnc(-c4ccccc4)s3)cc2N(Cc2c(F)cccc2Cl)C1=O landed at inactive

Quick note, Activity for CN1Cc2ccc(C(=O)NCc3cccc(C(=O)N4CCCC4)c3)cc2N(Cc2c(F)cccc2Cl)C1=O landed at inactive

Quick note, Activity for CN1Cc2ncc(C(=O)NCc3c(F)cc(F)cc3F)cc2N(Cc2cc(F)cc(F)c2)C1=O landed at 19%

# credit: ChEMBL document CHEMBL5046256
